Where do these numbers come from? They come from paper PMC12587545.

# System: P. aeruginosa
# METHOD_DESCRIPTION: Checkerboard assay (antibiotic potentiation)
# Format: cell-based, Pseudomonas aeruginosa
# TEST_PARAMETERS: P. aeruginosa 262-101856; antibiotic MIC with 8 µg/mL (5 µM) compound 1
ASSAY_METRIC: MICantibiotic + compound (µg/mL)
Respond with the bare value in µg/mL.

Provide only the value of recorded MICantibiotic + compound for `CO[C@H]1/C=C/O[C@@]2(C)Oc3c(C)c(O)c4c(O)c(c(/C=N/N5CCN(C)CC5)c(O)c4c3C2=O)NC(=O)/C(C)=C\C=C\[C@H](C)[C@H](O)[C@@H](C)[C@@H](O)[C@@H](C)[C@H](OC(C)=O)[C@@H]1C`
2

Output measured MICantibiotic + compound for this item: `CC(C)(O/N=C(\C(=O)N[C@@H]1C(=O)N2C(C(=O)[O-])=C(C[n+]3ccccc3)CS[C@H]12)c1csc(N)n1)C(=O)O`
4

Given the molecule `C[C@H]1COc2c(N3CCN(C)CC3)c(F)cc3c(=O)c(C(=O)O)cn1c23` , write its reported MICantibiotic + compound.
4

Indicate its recorded MICantibiotic + compound; the molecule in question is `C[C@@H]1CN2c3c(cc4c(N5C(=O)OC[C@@H]5C)noc4c3F)CC3(C(=O)NC(=O)NC3=O)[C@H]2[C@H](C)O1`
2

Let me know recorded MICantibiotic + compound for `CN(C)c1ccc(O)c2c1C[C@H]1C[C@H]3[C@H](N(C)C)C(O)=C(C(N)=O)C(=O)[C@@]3(O)C(O)=C1C2=O` , thanks.
2
